# System: 5-LOX (Homo sapiens, UniProt P09917)
# Sequence (P09917 whole entry): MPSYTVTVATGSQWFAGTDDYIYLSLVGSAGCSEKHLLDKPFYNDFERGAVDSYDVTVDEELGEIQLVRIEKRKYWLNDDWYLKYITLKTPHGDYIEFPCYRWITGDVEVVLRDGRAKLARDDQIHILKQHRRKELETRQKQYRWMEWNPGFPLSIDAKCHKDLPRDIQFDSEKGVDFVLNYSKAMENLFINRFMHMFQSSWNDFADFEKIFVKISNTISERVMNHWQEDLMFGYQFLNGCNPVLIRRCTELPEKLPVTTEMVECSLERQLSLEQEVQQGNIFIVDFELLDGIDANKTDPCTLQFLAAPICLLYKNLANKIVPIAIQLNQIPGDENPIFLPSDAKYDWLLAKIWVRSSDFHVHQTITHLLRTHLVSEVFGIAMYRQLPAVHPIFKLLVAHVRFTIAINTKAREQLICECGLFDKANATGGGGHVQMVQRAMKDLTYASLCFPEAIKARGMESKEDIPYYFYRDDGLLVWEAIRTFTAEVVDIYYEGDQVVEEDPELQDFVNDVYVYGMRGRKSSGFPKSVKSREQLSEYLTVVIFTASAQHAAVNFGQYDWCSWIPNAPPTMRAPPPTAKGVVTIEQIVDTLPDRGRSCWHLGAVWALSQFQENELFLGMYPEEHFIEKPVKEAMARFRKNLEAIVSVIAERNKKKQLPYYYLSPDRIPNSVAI
# Assay remarks: Cell-free 5-LOX activity (isolated human recombinant enzyme)
# Applied conditions: read-out: 5-LOX enzyme IC50; isolated human 5-LOX, cell-free; mean ± SEM
Would you mind telling me the reported IC50 of each entry?
Give bare numbers, in nM.

Please review the following examples before continuing.
INSERT INTO assay_data (molecule, measurement_label, test_result) VALUES
  ('CC(=O)c1cc2c3c(c(C)cc2oc1=O)O[C@](C)(CC/C=C(\C)CC/C=C(\C)CCC=C(CO)CO)CC3', 'IC50', 210),
  ('C/C(=C\CC/C(C)=C/CC[C@]1(C)CCc2c(C)c(O)c(C)c(C)c2O1)CCC=C(CO)CO [Compound 27a, α-amplexichromanol]', 'IC50', 110);

Request: IC50 lookup needed for COC(=O)C(C)CCC/C(C)=C/CC/C(C)=C/CC[C@]1(C)CCc2cc(O)cc(C)c2O1 (stereo partly drawn) , thanks.
Response: 170
